cytotoxicity at 10 µM overview
- Test summary: Cytotoxicity against rat PC12 cells assessed as inhibition of cell viability at 10 uM by MTT assay relative to control
- Type: cell-based, PC-12
- Condition parameters: read-out: INH

Known results for compounds:
- Compound: "COC(=O)c1cc(OC)c2c(c1-c1c(C(=O)NCCCCCCNc3c4c(nc5ccccc35)CCCC4)cc(OC)c3c1OCO3)OCO2"
  cytotoxicity at 10 µM: "< 5%"
- Compound: "COC(=O)c1cc(OC)c2c(c1-c1c(C(=O)NCCCCNc3c4c(nc5ccccc35)CCCC4)cc(OC)c3c1OCO3)OCO2"
  cytotoxicity at 10 µM: "< 5%"
- Compound: "COC(=O)c1cc(OC)c2c(c1-c1c(C(=O)NCCCCCCCCNc3c4c(nc5ccccc35)CCCC4)cc(OC)c3c1OCO3)OCO2"
  cytotoxicity at 10 µM: "< 5%"
- Compound: "COC(=O)c1cc(OC)c2c(c1-c1c(C(=O)NCCCCCCCCCCCCNc3c4c(nc5ccccc35)CCCC4)cc(OC)c3c1OCO3)OCO2"
  cytotoxicity at 10 µM: "< 5%"
- Compound: "COC(=O)c1cc(OC)c2c(c1-c1c(C(=O)OC)cc(OC)c3c1OCO3)OCO2 [BIFENDATE]"
  cytotoxicity at 10 µM: "< 5%"

# context switch: different compound, same cytotoxicity at 10 µM
Could you share which cytotoxicity at 10 µM value was measured for COC(=O)c1cc(OC)c2c(c1-c1c(C(=O)NCCCCCCCCCCNc3c4c(nc5ccccc35)CCCC4)cc(OC)c3c1OCO3)OCO2 ?
< 5%

###

- Test summary: Cytotoxicity against human HepG2 cells assessed as inhibition of cell viability at 1 uM by MTT assay relative to control
- Assay type: cell-based
- Condition parameters: read-out: INH
cytotoxicity at 1 µM overview
Field format: number, assumed %, no unit text.

- Structure smiles string: "COC(=O)c1cc(OC)c2c(c1-c1c(C(=O)NCCCCCCCCCCNc3c4c(nc5ccccc35)CCCC4)cc(OC)c3c1OCO3)OCO2"
  Measurement units: "%"
  cytotoxicity at 1 µM: 6.71
- Structure smiles string: "COC(=O)c1cc(OC)c2c(c1-c1c(C(=O)NCCCCCCCCNc3c4c(nc5ccccc35)CCCC4)cc(OC)c3c1OCO3)OCO2"
  Measurement units: "%"
  cytotoxicity at 1 µM: 5.81

Could you share which cytotoxicity at 1 µM value was measured for COC(=O)c1cc(OC)c2c(c1-c1c(C(=O)NCCCCCCCCCCCCNc3c4c(nc5ccccc35)CCCC4)cc(OC)c3c1OCO3)OCO2 ?
7.35

###

- Test summary: Cytotoxicity against human HepG2 cells assessed as inhibition of cell viability at 10 uM by MTT assay relative to control
- Format: cell-based
- Condition parameters: read-out: INH
Attribute measured: cytotoxicity at 10 µM (%)
Field format: number, assumed %, no unit text.

Known results for molecules:
- Molecule: "COC(=O)c1cc(OC)c2c(c1-c1c(C(=O)NCCCCNc3c4c(nc5ccccc35)CCCC4)cc(OC)c3c1OCO3)OCO2"
  cytotoxicity at 10 µM (%): 11.9
- Molecule: "COC(=O)c1cc(OC)c2c(c1-c1c(C(=O)NCCCCCCCCCCCCNc3c4c(nc5ccccc35)CCCC4)cc(OC)c3c1OCO3)OCO2"
  cytotoxicity at 10 µM (%): 13.8
- Molecule: "COC(=O)c1cc(OC)c2c(c1-c1c(C(=O)OC)cc(OC)c3c1OCO3)OCO2 [BIFENDATE]"
  cytotoxicity at 10 µM (%): 8.45
- Molecule: "COC(=O)c1cc(OC)c2c(c1-c1c(C(=O)NCCCCCCCCCCNc3c4c(nc5ccccc35)CCCC4)cc(OC)c3c1OCO3)OCO2"
  cytotoxicity at 10 µM (%): 10.8

Could you share which cytotoxicity at 10 µM value was measured for COC(=O)c1cc(OC)c2c(c1-c1c(C(=O)NCCCCCCCCNc3c4c(nc5ccccc35)CCCC4)cc(OC)c3c1OCO3)OCO2 ?
9.53

###

In what follows, each item is paired with its IC50 for Acetylcholinesterase (Electrophorus electricus, UniProt O42275).
Field format: number, assumed nM, no unit text.

- Structure smiles string: "COC(=O)c1cc(OC)c2c(c1-c1c(C(=O)NCCCCCCNc3c4c(nc5ccccc35)CCCC4)cc(OC)c3c1OCO3)OCO2"
  Experimental target: "Acetylcholinesterase (Electrophorus electricus, UniProt O42275)"
  IC50 (nM): 616
- Structure smiles string: "COC(=O)c1cc(OC)c2c(c1-c1c(C(=O)NCCCCCCCCCCNc3c4c(nc5ccccc35)CCCC4)cc(OC)c3c1OCO3)OCO2"
  Experimental target: "Acetylcholinesterase (Electrophorus electricus, UniProt O42275)"
  IC50 (nM): 27.3
- Structure smiles string: "COC(=O)c1cc(OC)c2c(c1-c1c(C(=O)NCCCCCCCCCCCCNc3c4c(nc5ccccc35)CCCC4)cc(OC)c3c1OCO3)OCO2"
  Experimental target: "Acetylcholinesterase (Electrophorus electricus, UniProt O42275)"
  IC50 (nM): 52.1

Could you share which IC50 value was measured for COC(=O)c1cc(OC)c2c(c1-c1c(C(=O)NCCCCCCCCNc3c4c(nc5ccccc35)CCCC4)cc(OC)c3c1OCO3)OCO2 ?
945

Next compound: COC(=O)c1cc(OC)c2c(c1-c1c(C(=O)NCCCCNc3c4c(nc5ccccc35)CCCC4)cc(OC)c3c1OCO3)OCO2
923

###

- Experimental target: Cholinesterase (Equus caballus, UniProt P81908)
- Sequence (P81908 whole entry): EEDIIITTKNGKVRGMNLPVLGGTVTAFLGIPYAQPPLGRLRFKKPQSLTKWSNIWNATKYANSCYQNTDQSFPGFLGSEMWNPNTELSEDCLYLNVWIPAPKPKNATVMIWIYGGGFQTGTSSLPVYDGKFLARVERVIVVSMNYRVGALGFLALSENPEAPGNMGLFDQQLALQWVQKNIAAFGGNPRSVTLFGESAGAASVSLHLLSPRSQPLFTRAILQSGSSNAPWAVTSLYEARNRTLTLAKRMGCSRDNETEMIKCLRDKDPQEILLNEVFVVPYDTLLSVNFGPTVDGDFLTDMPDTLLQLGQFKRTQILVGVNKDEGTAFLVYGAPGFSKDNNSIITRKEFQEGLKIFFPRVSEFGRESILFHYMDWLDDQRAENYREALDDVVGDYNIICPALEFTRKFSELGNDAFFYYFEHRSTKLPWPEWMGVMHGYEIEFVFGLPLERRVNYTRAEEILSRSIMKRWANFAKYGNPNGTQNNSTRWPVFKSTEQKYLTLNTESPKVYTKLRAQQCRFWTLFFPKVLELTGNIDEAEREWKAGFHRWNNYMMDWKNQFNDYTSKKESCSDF
- Test summary: Inhibition of equine serum BuChE using butyrylthiocholine chloride as substrate preincubated for 15 mins followed by substrate addition measured every minute by Ellman's method
IC50 overview
Field format: number, assumed nM, no unit text.

- Structure smiles string: "COC(=O)c1cc(OC)c2c(c1-c1c(C(=O)NCCCCCCCCCCNc3c4c(nc5ccccc35)CCCC4)cc(OC)c3c1OCO3)OCO2"
  IC50, nM: 8.63
- Structure smiles string: "COC(=O)c1cc(OC)c2c(c1-c1c(C(=O)NCCCCCCCCNc3c4c(nc5ccccc35)CCCC4)cc(OC)c3c1OCO3)OCO2"
  IC50, nM: 6.5
- Structure smiles string: "COC(=O)c1cc(OC)c2c(c1-c1c(C(=O)NCCCCCCNc3c4c(nc5ccccc35)CCCC4)cc(OC)c3c1OCO3)OCO2"
  IC50, nM: 4.02
- Structure smiles string: "COC(=O)c1cc(OC)c2c(c1-c1c(C(=O)NCCCCCCCCCCCCNc3c4c(nc5ccccc35)CCCC4)cc(OC)c3c1OCO3)OCO2"
  IC50, nM: 35.3

Lookup: IC50 / Cholinesterase (Equus caballus, UniProt P81908) / COC(=O)c1cc(OC)c2c(c1-c1c(C(=O)NCCCCNc3c4c(nc5ccccc35)CCCC4)cc(OC)c3c1OCO3)OCO2
75.5

###

- Test summary: Cytotoxicity against rat PC12 cells assessed as inhibition of cell viability at 1 uM by MTT assay relative to control
- Type: cell-based, PC-12
- Condition parameters: read-out: INH
Attribute measured: cytotoxicity at 1 µM

Known results for molecules:
- Molecule: "COC(=O)c1cc(OC)c2c(c1-c1c(C(=O)NCCCCCCCCCCCCNc3c4c(nc5ccccc35)CCCC4)cc(OC)c3c1OCO3)OCO2"
  cytotoxicity at 1 µM: "< 5%"
- Molecule: "COC(=O)c1cc(OC)c2c(c1-c1c(C(=O)OC)cc(OC)c3c1OCO3)OCO2 [BIFENDATE]"
  cytotoxicity at 1 µM: "< 5%"
- Molecule: "COC(=O)c1cc(OC)c2c(c1-c1c(C(=O)NCCCCNc3c4c(nc5ccccc35)CCCC4)cc(OC)c3c1OCO3)OCO2"
  cytotoxicity at 1 µM: "< 5%"
- Molecule: "COC(=O)c1cc(OC)c2c(c1-c1c(C(=O)NCCCCCCNc3c4c(nc5ccccc35)CCCC4)cc(OC)c3c1OCO3)OCO2"
  cytotoxicity at 1 µM: "5.26%"
- Molecule: "COC(=O)c1cc(OC)c2c(c1-c1c(C(=O)NCCCCCCCCNc3c4c(nc5ccccc35)CCCC4)cc(OC)c3c1OCO3)OCO2"
  cytotoxicity at 1 µM: "< 5%"

# context switch: different molecule, same cytotoxicity at 1 µM
Could you share which cytotoxicity at 1 µM value was measured for COC(=O)c1cc(OC)c2c(c1-c1c(C(=O)NCCCCCCCCCCNc3c4c(nc5ccccc35)CCCC4)cc(OC)c3c1OCO3)OCO2 ?
< 5%

###

- Test summary: Cytotoxicity against rat PC12 cells assessed as inhibition of cell viability at 50 uM by MTT assay relative to control
- Format: cell-based, PC-12
- Condition parameters: read-out: INH
Attribute measured: cytotoxicity at 50 µM
Your reply should be a number followed by the unit it is expressed in.

Known results for molecules:
- Molecule: "COC(=O)c1cc(OC)c2c(c1-c1c(C(=O)NCCCCCCCCNc3c4c(nc5ccccc35)CCCC4)cc(OC)c3c1OCO3)OCO2"
  Recorded value: "38.9%"
- Molecule: "COC(=O)c1cc(OC)c2c(c1-c1c(C(=O)NCCCCCCCCCCNc3c4c(nc5ccccc35)CCCC4)cc(OC)c3c1OCO3)OCO2"
  Recorded value: "7.84%"
- Molecule: "COC(=O)c1cc(OC)c2c(c1-c1c(C(=O)NCCCCNc3c4c(nc5ccccc35)CCCC4)cc(OC)c3c1OCO3)OCO2"
  Recorded value: "19.3%"

Could you share which cytotoxicity at 50 µM value was measured for COC(=O)c1cc(OC)c2c(c1-c1c(C(=O)NCCCCCCNc3c4c(nc5ccccc35)CCCC4)cc(OC)c3c1OCO3)OCO2 ?
27.3%

Next molecule: COC(=O)c1cc(OC)c2c(c1-c1c(C(=O)OC)cc(OC)c3c1OCO3)OCO2 [BIFENDATE]
7.21%

Next molecule: COC(=O)c1cc(OC)c2c(c1-c1c(C(=O)NCCCCCCCCCCCCNc3c4c(nc5ccccc35)CCCC4)cc(OC)c3c1OCO3)OCO2
7.76%
